pKd: −log10 of the molar value.
Kindly find below pKd information for UniProtKB Q92793 taken from the literature.
Sequence (Q92793 whole entry): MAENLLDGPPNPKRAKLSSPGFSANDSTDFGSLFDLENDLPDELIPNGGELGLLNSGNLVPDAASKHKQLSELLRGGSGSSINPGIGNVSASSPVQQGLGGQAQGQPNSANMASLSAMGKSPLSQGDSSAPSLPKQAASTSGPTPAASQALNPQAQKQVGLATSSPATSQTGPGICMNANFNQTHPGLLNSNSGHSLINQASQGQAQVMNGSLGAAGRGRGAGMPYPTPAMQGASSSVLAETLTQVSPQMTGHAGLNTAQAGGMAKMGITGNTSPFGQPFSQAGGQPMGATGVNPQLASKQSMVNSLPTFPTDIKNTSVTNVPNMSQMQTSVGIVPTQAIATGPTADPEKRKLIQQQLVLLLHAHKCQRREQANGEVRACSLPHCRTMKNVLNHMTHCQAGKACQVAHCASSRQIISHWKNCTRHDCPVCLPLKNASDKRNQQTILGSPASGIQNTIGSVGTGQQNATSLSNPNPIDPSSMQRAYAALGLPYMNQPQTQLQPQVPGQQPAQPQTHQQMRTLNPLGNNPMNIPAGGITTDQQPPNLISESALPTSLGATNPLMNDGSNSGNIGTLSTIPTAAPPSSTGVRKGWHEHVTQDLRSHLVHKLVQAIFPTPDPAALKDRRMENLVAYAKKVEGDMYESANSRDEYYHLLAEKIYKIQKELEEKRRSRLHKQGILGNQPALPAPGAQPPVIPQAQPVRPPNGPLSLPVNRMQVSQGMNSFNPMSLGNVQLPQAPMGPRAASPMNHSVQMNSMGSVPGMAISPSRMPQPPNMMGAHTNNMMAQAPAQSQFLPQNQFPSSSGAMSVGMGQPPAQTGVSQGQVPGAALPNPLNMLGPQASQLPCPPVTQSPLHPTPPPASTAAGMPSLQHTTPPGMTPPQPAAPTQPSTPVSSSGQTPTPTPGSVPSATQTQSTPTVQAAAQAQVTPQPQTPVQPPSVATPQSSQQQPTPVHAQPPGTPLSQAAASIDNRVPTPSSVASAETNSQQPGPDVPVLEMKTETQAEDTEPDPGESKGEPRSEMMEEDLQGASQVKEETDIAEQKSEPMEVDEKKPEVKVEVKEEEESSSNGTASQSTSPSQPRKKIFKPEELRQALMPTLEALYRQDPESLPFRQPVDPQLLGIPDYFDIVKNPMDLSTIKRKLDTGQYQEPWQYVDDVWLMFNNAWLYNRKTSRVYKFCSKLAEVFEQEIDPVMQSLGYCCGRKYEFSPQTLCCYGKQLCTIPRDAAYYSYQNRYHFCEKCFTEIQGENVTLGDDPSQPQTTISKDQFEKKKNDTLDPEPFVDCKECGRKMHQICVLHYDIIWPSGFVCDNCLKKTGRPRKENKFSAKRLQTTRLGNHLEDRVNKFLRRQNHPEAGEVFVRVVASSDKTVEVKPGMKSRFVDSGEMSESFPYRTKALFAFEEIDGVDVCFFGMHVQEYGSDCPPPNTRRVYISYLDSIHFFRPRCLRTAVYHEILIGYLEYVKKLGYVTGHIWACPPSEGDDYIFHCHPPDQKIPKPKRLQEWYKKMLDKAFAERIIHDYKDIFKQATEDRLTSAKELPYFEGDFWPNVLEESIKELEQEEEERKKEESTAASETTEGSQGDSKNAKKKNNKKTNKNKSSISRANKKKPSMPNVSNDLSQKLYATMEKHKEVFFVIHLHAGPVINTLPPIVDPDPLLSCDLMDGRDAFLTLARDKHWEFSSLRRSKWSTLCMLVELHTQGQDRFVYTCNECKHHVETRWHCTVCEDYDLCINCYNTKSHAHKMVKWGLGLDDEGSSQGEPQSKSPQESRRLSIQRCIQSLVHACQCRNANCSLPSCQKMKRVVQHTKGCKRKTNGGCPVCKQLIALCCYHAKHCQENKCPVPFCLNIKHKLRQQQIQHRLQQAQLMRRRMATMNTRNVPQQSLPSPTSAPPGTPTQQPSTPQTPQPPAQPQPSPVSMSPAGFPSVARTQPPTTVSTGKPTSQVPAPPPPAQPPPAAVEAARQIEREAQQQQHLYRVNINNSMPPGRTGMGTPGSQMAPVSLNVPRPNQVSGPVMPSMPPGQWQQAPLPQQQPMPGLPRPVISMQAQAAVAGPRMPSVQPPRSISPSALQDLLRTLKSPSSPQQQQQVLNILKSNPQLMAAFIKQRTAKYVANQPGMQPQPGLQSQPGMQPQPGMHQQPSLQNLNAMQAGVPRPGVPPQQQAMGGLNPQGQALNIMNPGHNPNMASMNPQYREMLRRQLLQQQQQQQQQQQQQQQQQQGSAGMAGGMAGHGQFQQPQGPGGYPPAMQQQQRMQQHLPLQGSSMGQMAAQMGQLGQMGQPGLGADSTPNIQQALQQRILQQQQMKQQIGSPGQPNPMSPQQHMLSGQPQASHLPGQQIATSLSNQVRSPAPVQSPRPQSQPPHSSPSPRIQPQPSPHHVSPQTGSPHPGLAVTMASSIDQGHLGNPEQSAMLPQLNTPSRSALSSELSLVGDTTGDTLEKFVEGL
parameter: pKd

Illustrative cases are given below, each with its answer.
| compound.smiles | pKd |
| --- | --- |
| CNC(=O)c1cc(Br)c[nH]1 | 5.40 |
| CNC(=O)N1CCCc2ccc(NC(=O)c3ccc(-c4cc[nH]n4)cc3)cc21 | 7.60 |
| C[C@@H]1CC(=O)Nc2cccc(-c3ccc4c(c3)c(-c3cnn(C)c3)nn4C)c2N1 | 7.52 |
| C=CCN(CC(=O)N(CC(N)=O)CC(C)C)C(=O)CN(Cc1ccco1)C(=O)CN(Cc1ccco1)C(=O)CN(Cc1ccco1)C(=O)CN(CC(C)C)C(=O)CNCc1cn(CCCCN(CC(N)=O)C(=O)CN(Cc2ccc3c(c2)OCO3)C(=O)CN(CCCCN)C(=O)CN(Cc2ccc3c(c2)OCO3)C(=O)CN(CC(C)C)C(=O)CN(CCCCN)C(=O)CNCc2ccc3c(c2)OCO3)nn1 | 5.08 |
| CCC(=O)N1CCOc2c(cc(-c3ccc(OC)c(OC)c3)cc2OC[C@H]2CCCN(C)C2)C1 | 6.77 |

[P] COc1ccccc1S(=O)(=O)Nc1ccc2c(c1)CN(C)C(=O)N2
[Q] COC(=O)c1ccc2[nH]c(=O)oc2c1
Task item: Of the pair P and Q , name the member with the lesser recorded pKd. Write down the label of the entry you select.
Reply: Q
